Values from patent US20260258115A1

# experimentalTarget: RSV F on RSV subtype A virus (mKate-RSV A2) (respiratory syncytial virus A2, UniProt P03420 26-574)
# assayMethodText: cell-based or functional assay
experimentalReadout: Neut IC50 subtype A
# output: numeric value plus its unit

Exercise: Returns the measured Neut IC50 subtype A for the input binder. Input: ADI-24832 (antibody, V domains shown, full-length IgG) VH: EVQLVESGGGLVKPGGSLRLSCAASGFTFSSYSMNWVRQAPGKGLEWVSSISASSSYIFYSDLVKGRFTISRDNAKNSLYLQMNSLRAEDTAVYYCARAGYYYGSGSYYVDYWGQGTLVTVSS VL: QSVLTQPPSVSGAPGQRVAISCTGSSSNIGAGYDVHWYQQLPGTAPKLLIYGNSNRPSGVPDRFSGSKSGTSASLAITGLQAEDEADYYCQSYGSSLSGWVFGGGTKLTVL
Key: 0.49 µg/mL

Exercise: I have this binder here, ADI-19501 (antibody, V domains shown, full-length IgG) VH: QVQLVQSGAEVKKPGASVKVSCKASGYAFTNYGVSWVRQAPGQGLEWMGWISVYNGNTNYAQKLQGRVTMTTDTSTSTAYMELRSLRSDDTALYYCARDPPSEGAAGLFDYWGQGTLVTISS VL: DIVMTQSPLSLPVTLGQPASFSCRSSQSLVYSDGNTYLSWFQQRPGQSPRRLIYKVSNRDSGVPDRFSGSGSGTDFTLKISRVEAEDVGVYYCMQGTHWPCTFGQGTKVEIK , and I need its recorded Neut IC50 subtype A.
Key: 0.02 µg/mL

Exercise: Requested field: Neut IC50 subtype A. Item: ADI-14357 (antibody, V domains shown, full-length IgG; also called Ab 25) VH: EVQLVESGGGVVQPGRSLRLSCAASGFTFSNYAMHWVRQAPGKGLEWVSIISYDGSNKYYADSVKGRFTISRDNSKNTLYLQINSLRTEDTAVYYCARARKRIPIVVVTAPYYYGMDVWGQGTTVTVSS VL: DIRVTQSPSSLSASVGDRVTITCRASQSISSYLHWYQQQPGKAPNLLIYAASNLQSGVPSRFSGSGSGTDFTLTISSLQPEDFATYYCQQSYTTPHTFGQGTKVEIK
Key: 1.24 µg/mL

Exercise: Look at this binder and give its reported Neut IC50 subtype A. ADI-19433 (antibody, V domains shown, full-length IgG) VH: EVQLVESGGGLVKPGGSLRLSCAASGFTFSSYSMNWVRQAPGKGLEWVSSISSSSSYIYYADSVKGRFTISRDNAKNSLYLQMNSLRAEDTAVYYCARAPPSVGGWYFDLWGRGTLVTVSS VL: QPVLTQPPSVSGAPGQRVTISCTGSSSNIGAGYDVHWYQQLPGTAPKLLIYGNSNRPSGVPDRFSGSKSGTSASLAITGLQAEDEADYYCQSYDSSLVFGGGTKLTVL
Key: 1.56 µg/mL

Exercise: Would you kindly share the measured Neut IC50 subtype A for ADI-25462 (antibody, V domains shown, full-length IgG) VH: EVQLVESGGGLVKPGGSLRLSCAASGFTFSSYSMNWVRQAPGKGLEWVSSISSSSSYIYYADSVKGRFTISRHNAKNSLYLQMNSLRAEDTAVYYCARGSSSSWFCFDYWGQGTLVTVSS VL: SYVLTQPPSVSGAPGQRVTISCTGSSSNIGAGYDVHWYQQLPGTAPKLLIYGNSNRPSGVPDRFSGSKSGTSASLAITGLQAEDEADYYCQSYDSSLSYVFGTGTKLTVL ?
Key: 0.15 µg/mL

Exercise: Which Neut IC50 subtype A value belongs to ADI-19458 (antibody, V domains shown, full-length IgG) VH: EVQLVESGGGRVKPGGSLRLSCAASGFTFRSYSMNWVRQAPGKGLEWVSSISSSSSYINYADSVKGRFTISRDNAKNSLYLQMNSLRAEDTAVYYCARDGSGMTIFGVVIDYWGQGTLVTVSS VL: QSVLTQPPSVSGAPGQRVTISCTGSSSNIGAGYDVHWYQQLPGTAPKLLIYGNSNRPSGVPDRFSGSKSGTSASLAITGLQAEDEADYYCQSYDRSLTVVFGGGTKLTVL ?
Key: 0.04 µg/mL

Exercise: What does the record list as Neut IC50 subtype A for ADI-14346 (antibody, V domains shown, full-length IgG; also called Ab 14) VH: EVQLLESGGGLVKPGGSLRLSCAASGFRFSSYSMNWVRQAPGKWLEWVSSISASSSYTDYADSVKGRFTISRDNAKNSLYLQMNSLRAEDTAVYYCAREDYLSSGSLLHWFDPWGQGTLVTVSS VL: QPVLTQPPSVSGAPGQRVTISCTGSSSNIGAGYDVHWYQQLPGTAPKLLIYGNNNRPSGVPDRFSGSKSGTSASLAITGLQAEDEADYYCQSYDSRLSVLFGGGTKVTVL ?
Key: 0.05 µg/mL

Exercise: Return reported Neut IC50 subtype A; argument: ADI-14333 (antibody, V domains shown, full-length IgG; also called Ab 1) VH: EVQLVETGGGLVKPGGSLRLSCADSGFPFSSYSMHWVRQAPGKGLEWVASISSSSSFINYADSVKGRFTISRDNAKNSLYLQMNSLRAEDTAVYFCAREAACGGDCYGYYFDYWGQGTLVTVSS VL: QSVVTQPPSASGAPGQRVTISCTGSSSNIGAGYDVHWYQQLPGTAPKVLISGNSNRPSGVPARFSGSKSGTSASLAITGLQAEDEADYYCQSYDSSLSGSVFGGGTQLTVL
Key: 0.07 µg/mL

Exercise: Form field: reported Neut IC50 subtype A of ADI-22757 (antibody, V domains shown, full-length IgG) VH: EVQLLESGAEVKKPGASVKVSCKASGYTFSNYGISWVRQAPGQGLEWMGWISVYNGNTEYAQKFQGRLTMTTDTSTSTAYMELRSLRSDDTAVYYCARDPPAVAASFMDVWGQGTTVTVSS VL: EIVLTQSPLSLPVTLGQPASISCRSSQSLVHSEGNTYLSWFQQRPGQSPRRLIYKVSNRDSGVPDRFSGSGSGTDFTLKISRVEAEDVGLYFCMQGTHWPPTFGGGTKVEIK
Key: 0.06 µg/mL

Exercise: What Neut IC50 subtype A value was documented for this binder, ADI-14347 (antibody, V domains shown, full-length IgG; also called Ab 15) VH: EVQLVESGGGLVKPGGSLRLSCAASGFTFRDYYMNWIRQAPGKGLEWVSDISASSSYTNYADSVKGRFTISRDNAKTSLYLQMNSLRAEDTAVYYCAREVVTAMGGYYFDYWGQGTLVTVSS VL: QSVVTQPPSVSGAPGQRVTISCTGSSSNIGAGYDVHWYQQLPGTAPKLLIYGNNNRPSGVPDRFSGSKSGTSASLAITGLQAEDEADYYCQSYDSSLSGSGVFGTGTKVTVL ?
Key: 0.11 µg/mL
